# protocol: Growth inhibition of human non-small cell lung cancer cells after 48 hrs by SRB assay
# Format: functional
# assay context: Cancer cell lines
GI50 vs 6 µM: less than gives fulfilled; not less than gives not fulfilled.

These solved cases illustrate the format of a correct answer.
- smiles string: "COc1cc(CSc2nc3ccc(Cl)cc3c(=O)n2Cc2ccccc2)cc(OC)c1OC"
  answer label: "fulfilled"
- smiles string: "COc1cc(CSc2nc3ccc(C)cc3c(=O)n2Cc2ccccc2)cc(OC)c1OC"
  answer label: "fulfilled"
- smiles string: "COc1ccccc1-n1c(SCc2cc(OC)c(OC)c(OC)c2)nc2ccc(Cl)cc2c1=O"
  answer label: "fulfilled"
- smiles string: "COc1ccc(-n2c(SCc3cc(OC)c(OC)c(OC)c3)nc3ccc(C)cc3c2=O)c(OC)c1"
  answer label: "not fulfilled"

Prompt line: Quick check: does COc1cc(CSc2nc3ccc(C)cc3c(=O)n2-c2ccccc2)cc(OC)c1OC have GI50 under 6 µM?
Response line: fulfilled

Prompt line: Queued: COc1cc2nc(SCc3cc(OC)c(OC)c(OC)c3)n(Cc3ccccc3)c(=O)c2cc1OC
Response line: fulfilled

Prompt line: Now the compound COc1ccc(-n2c(SCc3cc(OC)c(OC)c(OC)c3)nc3ccc(C)cc3c2=O)cc1
Response line: not fulfilled

Prompt line: And the next one, O=c1[nH]cc(F)c(=O)[nH]1 ?
Response line: not fulfilled
